Test: Acute oral toxicity in male mice, LD50 by Litchfield-Wilcoxon method (Test Example 5)
Conditions: mouse, in vivo, mortality on the seventh day
Exam item: assign true to entries whose LD50 at 168 h is below 100 mg/kg and false to entries at or above 100 mg/kg. Note that a value of exactly 100 mg/kg receives false.

A selection of reference data follows.
>>> qualitative_label("CCOC(=O)CN(SN(C)C(=O)Oc1cccc2c1OC(C)(C)C2)C(=O)c1ccccc1")
"false"
>>> qualitative_label("CCOC(=O)CN(SN(C)C(=O)Oc1cccc2c1OC(C)(C)C2)C1CCCCC1")
"false"

Quick check: does `CCOC(=O)CCN(CC(C)C)SN(C)C(=O)Oc1cccc2c1OC(C)(C)C2` have LD50 at 168 h under 100 mg/kg?
false

Quick check: does `COC(=O)CCN(SN(C)C(=O)Oc1cccc2c1OC(C)(C)C2)C(C)C` have LD50 at 168 h under 100 mg/kg?
true

Quick check: does `CN(SN(CCC#N)CCC#N)C(=O)Oc1cccc2c1OC(C)(C)C2` have LD50 at 168 h under 100 mg/kg?
true

Quick check: does `CCOC(=O)CCN(SN(C)C(=O)Oc1cccc2c1OC(C)(C)C2)C1CCCCC1` have LD50 at 168 h under 100 mg/kg?
false

Quick check: does `CCOC(=O)CCN(CC(=O)OCC)SN(C)C(=O)Oc1cccc2c1OC(C)(C)C2` have LD50 at 168 h under 100 mg/kg?
false

Quick check: does CCOC(=O)CN(SN(C)C(=O)Oc1cccc2c1OC(C)(C)C2)C(C)CC (stereo not drawn) have LD50 at 168 h under 100 mg/kg?
false

Quick check: does `CCOC(=O)CN(SN(C)C(=O)Oc1cccc2c1OC(C)(C)C2)c1ccccc1` have LD50 at 168 h under 100 mg/kg?
false

Quick check: does CCCCC(CC)COC(=O)CCN(SN(C)C(=O)Oc1cccc2c1OC(C)(C)C2)C(C)C (stereo not drawn) have LD50 at 168 h under 100 mg/kg?
false

Quick check: does CCOC(=O)CN(SN(C)C(=O)Oc1cccc2c1OC(C)(C)C2)C(CC)C(=O)OCC (stereo not drawn) have LD50 at 168 h under 100 mg/kg?
true

Quick check: does `CC(C)N(CCC#N)SN(C)C(=O)Oc1cccc2c1OC(C)(C)C2` have LD50 at 168 h under 100 mg/kg?
false

Quick check: does `CCOC(=O)CN(SN(C)C(=O)Oc1cccc2c1OC(C)(C)C2)C(=O)CC` have LD50 at 168 h under 100 mg/kg?
true

Quick check: does `Cc1ccc(N(CC#N)SN(C)C(=O)Oc2cccc3c2OC(C)(C)C3)cc1` have LD50 at 168 h under 100 mg/kg?
true

Quick check: does `CCOC(=O)CN(SN(C)C(=O)Oc1cccc2c1OC(C)(C)C2)C(=O)OC` have LD50 at 168 h under 100 mg/kg?
false

Quick check: does `CCOC(=O)CN(CCC#N)SN(C)C(=O)Oc1cccc2c1OC(C)(C)C2` have LD50 at 168 h under 100 mg/kg?
false

Quick check: does `CCCCOC(=O)CCN(SN(C)C(=O)Oc1cccc2c1OC(C)(C)C2)C(C)C` have LD50 at 168 h under 100 mg/kg?
false

Quick check: does `CCOC(=O)CCN(SN(C)C(=O)Oc1cccc2c1OC(C)(C)C2)C(=O)OCC` have LD50 at 168 h under 100 mg/kg?
false
